In this section we review reported IC50 values for a set of molecules.
assay-system: PD-L1 His protein / PD-1 Fc protein (Homo sapiens, UniProt Q9NZQ7)
Sequence (Q9NZQ7 19-238 limits assumed): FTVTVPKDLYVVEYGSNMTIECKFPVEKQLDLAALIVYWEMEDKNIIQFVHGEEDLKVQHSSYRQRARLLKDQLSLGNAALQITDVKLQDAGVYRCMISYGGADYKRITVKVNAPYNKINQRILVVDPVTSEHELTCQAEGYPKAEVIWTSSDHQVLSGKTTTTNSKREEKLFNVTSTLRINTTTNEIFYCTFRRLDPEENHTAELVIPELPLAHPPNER
protocol-details: HTRF Assay (PD-1/PD-L1 interaction)
test-context: PD-L1 His 6 nM, PD-1 Fc 6 nM

- molecule: "Cc1c(COc2cc(OCc3cncc(C#N)c3)c(CNC[C@H]3CCC(=O)N3)cc2Cl)cccc1-c1cccc(-c2ccn3c(=O)c(CNC[C@H]4CCC(=O)N4)cnc3c2)c1C"
  IC50 / nM: 0.8
- molecule: "COc1nc(-c2cccc(-c3cccc(-c4ccn5c(=O)c(CN6CCC[C@H](C(=O)O)C6)cnc5c4)c3Cl)c2Cl)ccc1CNC[C@@H]1CCC(=O)N1"
  IC50 / nM: 0.3
- molecule: "COc1nc(-c2cccc(-c3cccc(-c4cnc5c(CNC[C@@H]6CCC(=O)N6)cn(C)c5c4)c3Cl)c2Cl)ccc1CNC[C@@H]1CCC(=O)N1"
  IC50 / nM: 180
- molecule: "COc1nc(-c2cccc(-c3cccc(-c4ccn5c(=O)c(CNC6CC7(CCNC7=O)C6)cnc5c4)c3Cl)c2Cl)ccc1CNC[C@@H]1CCC(=O)N1 (single isomer, unassigned) [Example 250]"
  IC50 / nM: 1
- molecule: "COc1nc(-c2cccc(-c3cccc(-c4ccn5c(=O)c(CNC[C@@H](C)O)cnc5c4)c3Cl)c2Cl)ccc1CNC[C@@H]1CCC(=O)N1"
  IC50 / nM: 1.7
- molecule: "COc1nc(-c2cccc(-c3cccc(-c4ccn5c(=O)cc(CNC[C@@H]6CCC(=O)N6)nc5c4)c3Cl)c2Cl)ccc1CNC[C@@H]1CCC(=O)N1"
  IC50 / nM: 1.4
- molecule: "COc1nc(-c2cccc(-c3cccc(-c4ccn5c(=O)c(CNCCN6CCS(=O)(=O)CC6)cnc5c4)c3Cl)c2Cl)ccc1CNC[C@@H]1CCC(=O)N1"
  IC50 / nM: 17.2
- molecule: "COc1nc(-c2cccc(-c3cccc(-c4cc5c(cn4)CN(CCNC[C@@H]4CCC(=O)N4)C5=O)c3Cl)c2Cl)ccc1CNC[C@@H]1CCC(=O)N1"
  IC50 / nM: 0.1
- molecule: "COc1nc(-c2cccc(-c3cccc(-c4ccc5c(CNCCN6CCCC6=O)cn(C)c5n4)c3Cl)c2Cl)ccc1CNC[C@@H]1CCC(=O)N1"
  IC50 / nM: 170
- molecule: "CNC(=O)C[C@H](O)CNCc1cnc2cc(-c3cccc(-c4cccc(-c5ccc(CNC[C@@H]6CCC(=O)N6)c(OC)n5)c4Cl)c3Cl)ccn2c1=O"
  IC50 / nM: 0.1
- molecule: "COc1nc(-c2cccc(-c3cc(Cl)cc(-c4ccn5c(=O)c(CNC[C@@H]6CCC(=O)N6)cnc5c4)c3Cl)c2Cl)ccc1CNC[C@@H]1CCC(=O)N1"
  IC50 / nM: 5.8
- molecule: "COc1nc(-c2cccc(-c3cccc(-c4ccn5c(=O)c(CNC[C@H](C)O)cnc5c4)c3Cl)c2Cl)ccc1CNC[C@H](C)O"
  IC50 / nM: 1.2
- molecule: "COc1nc(-c2cccc(-c3cccc(-c4ccc5c(n4)N(C)CCC5NC[C@@H]4CCC(=O)N4)c3Cl)c2Cl)ccc1CNC[C@@H]1CCC(=O)N1 (single isomer, unassigned) [Example 52]"
  IC50 / nM: 0.8
- molecule: "COc1nc(-c2cccc(-c3cccc(-c4ccn5c(=O)c(CNC[C@@H]6CCC(=O)N6)cnc5c4)c3C)c2Cl)ccc1CNC[C@@H]1CCC(=O)N1"
  IC50 / nM: 2.3
- molecule: "COc1nc(-c2cccc(-c3cccc(-c4ccn5c(=O)c(CNCCC(=O)O)cnc5c4)c3Cl)c2Cl)ccc1CNC[C@@H]1CCC(=O)N1"
  IC50 / nM: 0.1
- molecule: "COC(=O)[C@H](CO)NCc1cnc2cc(-c3cccc(-c4cccc(-c5ccc(CNC[C@@H]6CCC(=O)N6)c(OC)n5)c4Cl)c3Cl)ccn2c1=O"
  IC50 / nM: 2.1
- molecule: "COc1nc(-c2cccc(-c3cccc(-c4ccc5nc(CN[C@H]6C[C@](C)(O)C6)cc(=O)n5c4)c3Cl)c2Cl)ccc1CNC[C@@H]1CCC(=O)N1"
  IC50 / nM: 0.1
- molecule: "COC(=O)C(C)(C)CNCc1nn2cc(-c3cccc(-c4cccc(-c5ccc(CNC[C@@H]6CCC(=O)N6)c(OC)n5)c4Cl)c3Cl)cc2c(=O)n1C"
  IC50 / nM: 0.7
- molecule: "COc1nc(-c2cccc(-c3cccc(-c4ccc5c(n4)N(C)CCC5NCc4cncc(F)c4)c3Cl)c2Cl)ccc1CNC[C@@H]1CCC(=O)N1 (mixture of isomers)"
  IC50 / nM: 180
- molecule: "COc1nc(-c2cccc(-c3cccc(-c4cc(C)n5c(=O)c(C6=NCC(O)CN6)cnc5c4)c3Cl)c2Cl)ccc1CNC[C@@H]1CCC(=O)N1 (stereo partly shown)"
  IC50 / nM: 5.9
- molecule: "COc1nc(-c2cccc(-c3cccc(-c4ccc5c(c4)CNCCN5C)c3Cl)c2Cl)ccc1CNC[C@@H]1CCC(=O)N1"
  IC50 / nM: 85
- molecule: "COc1nc(-c2cccc(-c3cccc(-c4ccn5c(=O)c(CNC[C@@H]6CCC(=O)N6)cnc5c4)c3Cl)c2Cl)ccc1CN[C@@H](CO)C(=O)O"
  IC50 / nM: 0.6

----------
assay-system: PD-L1 His protein / PD-1 Fc protein (Homo sapiens, UniProt Q9NZQ7)
protocol-details: HTRF Assay (PD-1/PD-L1 interaction)
test-context: PD-L1 His 6 nM, PD-1 Fc 6 nM
pIC50: −log10 of the molar value.
Label condition met when pIC50 is at or above 9; otherwise label condition not met.

- compound: "CNC(=O)C[C@H](O)CNCc1cnc2cc(-c3cccc(-c4cccc(-c5cc(F)c(CNC[C@@H]6CCC(=O)N6)c(OC)n5)c4Cl)c3Cl)ccn2c1=O"
  class-name: "condition met"
- compound: "COc1nc(-c2cccc(-c3cccc(-c4ccn5c(=O)c(CNCC6NC(=O)CC6(C)C)cnc5c4)c3Cl)c2Cl)ccc1CNC[C@@H]1CCC(=O)N1 (stereo partly drawn)"
  class-name: "condition not met"
- compound: "COc1nc(-c2cccc(-c3cccc(-c4ccn5c(=O)c(CNCCn6cnnc6)cnc5c4)c3Cl)c2Cl)ccc1CNC[C@@H]1CCC(=O)N1"
  class-name: "condition met"
- compound: "COc1nc(-c2cccc(-c3cccc(-c4ccn5c(=O)c(CNCC6(O)COC6)cnc5c4)c3Cl)c2Cl)ccc1CNC[C@@H]1CCC(=O)N1"
  class-name: "condition met"
- compound: "Cc1c(-c2ccn3c(=O)c(CNC[C@@H]4CCC(=O)N4)cnc3c2)cccc1-c1cccc(-c2ccn3c(=O)c(CNC[C@@H]4CCC(=O)N4)cnc3c2)c1C"
  class-name: "condition not met"

----------
In this section we review reported pIC50 values for a set of compounds.
assay-system: PD-L1 His protein / PD-1 Fc protein (Homo sapiens, UniProt Q9NZQ7)
protocol-details: HTRF Assay (PD-1/PD-L1 interaction)
test-context: PD-L1 His 6 nM, PD-1 Fc 6 nM
Method: PD-L1 His protein was prepared and added at the final concentration of 6 nM in the White opaque 384 well plate (Corning cat #3824BC). PD-L1 small molecule inhibitors were diluted by 3-fold starting from 20 μM and a final concentration of 0.001 μM and added to the well. PD-1 Fc protein was added at the final concentration of 6 nM. […] The plate was read using PerkinElmer Envision plate reader and data was analyzed by Prism 6 software.
pIC50: −log10 of the molar value.
quantity: pIC50

- chem-smiles: "O=C1CC[C@@H](CNCc2cnc3cc(-c4cccc(-c5cccc(-c6ccc7c(n6)OCCN(CCO)C7)c5Cl)c4Cl)ccn3c2=O)N1"
  quantity: "pIC50"
  observed-result: 6.15
- chem-smiles: "COc1nc(-c2cccc(-c3cccc(-c4ccc5ncc(CNC[C@@H]6CCC(=O)N6)n5c4)c3Cl)c2Cl)ccc1CNC[C@@H]1CCC(=O)N1"
  quantity: "pIC50"
  observed-result: 7.40
- chem-smiles: "COc1nc(-c2cccc(-c3cccc(-c4ccn5c(=O)c(CNC[C@@H]6CCC(=O)N6)cnc5c4)c3C)c2Cl)cnc1CNC[C@@H]1CCC(=O)N1"
  quantity: "pIC50"
  observed-result: 8.82
- chem-smiles: "CNc1nc(-c2cccc(-c3cccc(-c4ccn5c(=O)c(CNC[C@@H]6CCC(=O)N6)cnc5c4)c3Cl)c2Cl)ccc1CNC[C@@H]1CCC(=O)N1"
  quantity: "pIC50"
  observed-result: 8.46
- chem-smiles: "COc1c(CNC[C@@H]2CCC(=O)N2)ccc(-c2cccc(-c3cccc(-c4ccn5c(=O)c(CNC[C@@H]6CCC(=O)N6)cnc5c4)c3Cl)c2Cl)c1F"
  quantity: "pIC50"
  observed-result: 8.23
- chem-smiles: "O=C1CC[C@@H](CNCc2nc3cc(-c4cccc(-c5cccc(-c6ccn7c(=O)c(CNC[C@@H]8CCC(=O)N8)cnc7c6)c5Cl)c4Cl)ccn3c2Cl)N1"
  quantity: "pIC50"
  observed-result: 6.62

Source of measurements: patent US20230143612A1
